# Assay Name: Hematology assays after subcutaneous administration in CD-1 mice (Example 6)
# Type: in vivo
# Assay Context: 50 mg/kg subcutaneous twice weekly for 7 weeks
Strand notation (5' to 3'): a small letter for the sugar, then the base; units joined by * are phosphorothioate-linked, units joined directly phosphodiester-linked; [ ] holds rarer units or linkages, { } end groups; capitals alone tell only the bases. k = constrained ethyl (cEt); [5mC] = 5-methylcytosine; d = 2'-deoxy (DNA)
Each item that follows carries a reported Reticulocytes.
Unit % implied. Number only.

Examples with their reported Reticulocytes follow.
799144 (antisense kT*kT*kG*dG*dG*dT*dT*dA*dT*dG*dA*d[5mC]*dG*kG*kA*k[5mC]) [compound 799144]: 3.3
830025 (antisense TTTGTAAATCGAAAGC; 3-10-3 cEt gapmer, further chemistry not given here) [compound 830025]: 3.3
798781 (CGTAAGATTCACAGCA; 3-10-3 cEt gapmer, further chemistry not given here) [compound 798781]: 3.3
790615 (CCAATGAGAATGCTTC; 3-10-3 cEt gapmer, further chemistry not given here) [compound 790615]: 3.5
830027 (antisense kA*kA*k[5mC]*d[5mC]*dA*dT*dT*dT*dA*dT*d[5mC]*dT*dG*kG*kT*kG) [compound 830027]: 3.4
829994 (GGAGGCAGGGCCGCGA; 3-10-3 cEt gapmer, further chemistry not given here) [compound 829994]: 3.7

Now examine the next entry.
Which Reticulocytes is reported for this substance? 830121 (AGAATCAAGCCCTGGC; 3-10-3 cEt gapmer, further chemistry not given here) [compound 830121]
4.5

Origin of values: patent US10517889B2
